Assay: qHTS Assay for Inhibitors of Fructose-1,6-bisphosphate Aldolase from Giardia Lamblia: Coupling assay counterscreen; further: on the % scale 0 is the no-effect control and ±100 the full control effect
Details: coupling enzyme system counterscreen, AmpLite Red fluorescence; at 58.2 µM (top of the series)
Out of some 290,000 compounds screened, about 2,000 (0.69%) were called active. The sample as a whole holds a higher share of actives than the screen did.
The entries below are paired with their reported activity change, negative = inhibition.
Field: numeric (%). Do not append units.

What does the data say about its activity change, negative = inhibition? Entry: "CC(C)Oc1c(Br)cc(Br)cc1/C=N/NC(N)=S"
-0.43

====

Experiment: qHTS Assay for Inhibitors of Fructose-1,6-bisphosphate Aldolase from Giardia Lamblia: Coupling assay counterscreen; further: on the % scale 0 is the no-effect control and ±100 the full control effect
Details: coupling enzyme system counterscreen, AmpLite Red fluorescence; at 58.2 µM (top of the series)
Out of some 290,000 compounds screened, about 2,000 (0.69%) were called active. The sample holds actives, similar compounds and a random draw of the others, so the mix is not that of the screen.
property_measured: activity change, negative = inhibition (%)
Respond numerically; units are % and should not be typed.

Record excerpt, results attached:
{"columns": ["compound", "numeric_value"],
 "data": [
  ["COc1ccc(C2CC(O)(c3ccccc3)Oc3cc(C)cc(C)c32)cc1 (centres undefined)", -4.71],
  ["CNC(=O)C1(C)C=CC2(CCCCC2)N1C(C)=O (centres undefined)", -1.27],
  ["O=C(CC(n1cncn1)C(Cl)(Cl)Cl)c1ccc([N+](=O)[O-])cc1 (centres undefined)", -0.311],
  ["CCN1C(=O)c2cccc3c(S(=O)(=O)Nc4ccccc4O)ccc1c23", -10.8],
  ["CCOC(=O)c1c(C)[nH]c(C)c1S(=O)(=O)N(C)CC(=O)Nc1ccccc1C", 0.829]
]}

// lookup activity change, negative = inhibition for "O=[N+]([O-])c1ccc(Sc2n[nH]c(-c3ccco3)n2)nc1"
3.58

Another compound to check: "CCN1C(=O)c2cccc3c(N)ccc1c23"
-57.1

Can you check "CC(C)(C)NC(=O)COc1ccc(CNc2ccc3[nH]c(=O)[nH]c3c2)cc1" next?
-49.7

Then "O=c1ccc2cc(S(=O)(=O)Nc3ccccc3F)ccc2o1" ?
2.93

Another compound to check: "CCC(=O)Nc1ccc2nn(-c3ccc(F)cc3)nc2c1"
0.799

====

Experiment: qHTS Assay for Inhibitors of Fructose-1,6-bisphosphate Aldolase from Giardia Lamblia: Coupling assay counterscreen; further: on the % scale 0 is the no-effect control and ±100 the full control effect
Conditions: coupling enzyme system counterscreen, AmpLite Red fluorescence; at 58.2 µM (top of the series)
Screen size: about 290,000 compounds; about 2,000 (0.69%) were called active. Cut-off read from the data, not from the text of the source: active = activity change below about -30%; inactive = the rest, inconclusive results apart. The sample as a whole holds a higher share of actives than the screen did.
Valid outcomes are listed here; reply with one: T = active, F = inactive

{"columns": ["molecule", "assigned_category"],
 "data": [
  ["Cc1ccc(-c2c3c(=O)n(C)c(=O)n(C)c3cn2-n2cnnc2)cc1", "F"],
  ["N#CC1=C(N)Oc2n[nH]c(CSc3ccccc3)c2C12C(=O)Nc1ccccc12 (stereo not given)", "F"],
  ["CC1(C)Cc2ccccc2-c2[nH]c(=S)[nH]c(=O)c21", "F"],
  ["COc1ccc2[nH]cc(CCNc3ncnc4ccc(-c5ccccc5CN(C)C)cc34)c2c1", "F"],
  ["N#CC1=C(N)Oc2[nH]c(=S)[nH]c(=O)c2C12C(=O)Nc1ccccc12 (stereo not given)", "T"],
  ["COc1ccc2[nH]cc(CCNc3cc(-c4ccccc4CN(C)C)ncn3)c2c1", "F"]
]}

Outcome logged for "COc1ccc(-c2c3c(=O)n(C)c(=O)n(C)c3cn2NC(C)=O)cc1" in this assay:
F

Would you kindly repeat that for "COc1ccc(-c2c3c(=O)n(C)c(=O)n(C)c3cn2-c2cccc(OC)c2)cc1" ?
F

Queued: "Cc1ccc(-c2c3c(=O)n(C)c(=O)n(C)c3cn2-c2ccccc2O)cc1"
T

How about "CCOC(=O)C1=NO[C@@]2(C=C(Br)C(=O)[C@H]3O[C@H]32)C1" ?
F

====

Assay: qHTS Assay for Inhibitors of Fructose-1,6-bisphosphate Aldolase from Giardia Lamblia: Coupling assay counterscreen; further: on the % scale 0 is the no-effect control and ±100 the full control effect
Details: coupling enzyme system counterscreen, AmpLite Red fluorescence; at 58.2 µM (top of the series)
About 2,000 (0.69%) of roughly 290,000 compounds were called active. Shown is part of a subset that was picked to be rich in actives.
property_measured: activity change, negative = inhibition

{"columns": ["compound", "activity change, negative = inhibition"],
 "data": [
  ["COc1ccc(CC(=O)N/N=C/c2cc([N+](=O)[O-])cc(Br)c2O)cc1", "8.72% (inactive)"]
]}

Would you kindly share the measured activity change, negative = inhibition for "Cc1cccc(C(=O)Nc2ccc(C(=O)/C=C/c3cccs3)cc2)c1" ?
-6.98% (inactive)

Consider next the compound "CCOC(=O)CSc1nccc(N(C)C)c1C#N" in the same way.
-0.791% (inactive)

Next entry: Cc1cccc(OC(C)C(=O)N2CCc3ccccc3C2)c1 (stereo unspecified)
3.66% (inactive)

Try this compound next: O=C(CCCn1c(SCC(=O)c2ccccc2)nc2ccccc2c1=O)NCC1CCCO1 (stereo unspecified)
-0.079% (inactive)

Subsequent entry: "COCCCNc1nc2ccccc2nc1NS(=O)(=O)c1ccc(F)cc1"
3.51% (inactive)

====

This listing pairs compounds with measured activity change, negative = inhibition.
Experiment: qHTS Assay for Inhibitors of Fructose-1,6-bisphosphate Aldolase from Giardia Lamblia: Coupling assay counterscreen; further: on the % scale 0 is the no-effect control and ±100 the full control effect
Conditions: coupling enzyme system counterscreen, AmpLite Red fluorescence; at 58.2 µM (top of the series)
The whole screen tested about 290,000 compounds, of which about 2,000 (0.69%) were called active. The entries come from a sample that favours actives as a whole.
Express your answer in %, writing the number without its unit.

{"columns": ["compound", "activity change, negative = inhibition [%]"],
 "data": [
  ["COC(=O)N1C(/C=C/C=C/c2ccc(OC)cc2)=Cc2ccccc2C1CC(C)=O (stereo not given)", -0.194],
  ["Cc1cc(C(F)F)n2nc(C(=O)Nc3ccc(S(=O)(=O)NC45CC6CC(CC(C6)C4)C5)cc3)nc2n1", 0.756],
  ["COc1cc(NC(=O)c2ccccc2)c(OC)cc1NC(=O)Cc1ccccc1", -0.254],
  ["CCn1nccc1C(=O)Nc1ccc(Cl)c(Cl)c1", 0.939],
  ["Cc1ccc(S(=O)(=O)c2c(N)n(C)c3nc4ccccc4nc23)cc1", -4.65]
]}

Please look up its activity change, negative = inhibition: "COc1ccc(N2CCN(C(=O)CCSCc3ccccc3F)CC2)cc1"
2.76

Further, for "COc1cccc(-c2cc(NCCc3c[nH]c4ccc(OC)cc34)ncn2)c1" ?
-31

====

Assay: qHTS Assay for Inhibitors of Fructose-1,6-bisphosphate Aldolase from Giardia Lamblia: Coupling assay counterscreen; further: on the % scale 0 is the no-effect control and ±100 the full control effect
Conditions: coupling enzyme system counterscreen, AmpLite Red fluorescence; at 58.2 µM (top of the series)
In all, about 290,000 compounds went through this assay and about 2,000 (0.69%) were called active. The full list was thinned out, with actives kept by preference.
Reported activity change, negative = inhibition by item:
Quick reminder: number only, in %, skip the unit.

Observe how each entry below is paired with its result.
{"columns": ["compound", "units", "activity change, negative = inhibition"],
 "data": [
  ["O=[N+]([O-])c1ccc(N(CCO)Cc2ccccc2)c([N+](=O)[O-])c1", "%", -1.63],
  ["CC[N+](C)(CC)CCC[n+]1c(-c2ccccc2)c2cc(N)ccc2c2ccc(N)cc21", "%", -38.7],
  ["CCCC(=O)N1CCC(CCC(=O)NC2CC2)CC1", "%", 0.0768]
]}

Could you tell me which activity change, negative = inhibition is on file for "Cc1ccc(-c2ccc(/C=N/NC(=O)CN3CCOCC3)o2)cc1[N+](=O)[O-]" ?
-44

Follow-up item: CC(C)(C)OC(=O)NCCCCC1=CC2=CC(=O)C(C)(OC(=O)c3cccs3)C(=O)C2=CO1 (stereo not given)
0.595

====

Test: qHTS Assay for Inhibitors of Fructose-1,6-bisphosphate Aldolase from Giardia Lamblia: Coupling assay counterscreen; further: on the % scale 0 is the no-effect control and ±100 the full control effect
Conditions: coupling enzyme system counterscreen, AmpLite Red fluorescence; at 58.2 µM (top of the series)
About 2,000 (0.69%) of roughly 290,000 compounds were called active. The sample as a whole holds a higher share of actives than the screen did.
property_measured: activity change, negative = inhibition (%)
Express your answer in %, writing the number without its unit.

See these solved cases before continuing.
{"columns": ["compound", "units", "activity change, negative = inhibition"],
 "data": [
  ["Cc1cc(C(=O)N/N=C/c2ccccn2)c2ccccc2n1", "%", 0.262],
  ["C=C1/C(=C\\C=C2\\CCCC3(C)C2CCC3C(C)/C=C/C(O)C2CC2)CC(O)CC1O (stereo not drawn)", "%", -0.462]
]}

For the compound "CN(CCOc1ccccc1)C(=O)c1cc(COc2c(F)cccc2F)on1" , what activity change, negative = inhibition is on record?
-0.542

Another compound: "CCOC(=O)c1ccccc1CN1C(=O)c2ccccc2S1(=O)=O"
-1.95

Again, but for Nc1nc2c(nc(Cl)n2C2OC(CO)C(O)C2O)c(=O)[nH]1 (stereo not drawn)
1.07

And then "Cc1ccc(-c2nc3ccccc3[nH]c2=O)cc1" , what is it?
1.32

Same lookup for "CN(C)c1ccc(S(=O)(=O)NCC(=O)NCC2CCCCC2)cc1[N+](=O)[O-]" , please.
-0.658
